system: RARg homodimer (NR concentration 270 nM); assay: PBM binding z-score (relative to random genomic background probes); higher = stronger binding; sequences stand for … in GC…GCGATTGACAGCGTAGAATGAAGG
Observation Type: PBM binding z-score

[[record]]
sequence_entry = "CGTCCAAGGTCAGCAGGTCAGTGACAGCGACGTG"
measured_number = 7.03

[[record]]
sequence_entry = "CAGCCTAGGTCAGGGCCGGTATAGGAGGAACGTT"
measured_number = 3.86

[[record]]
sequence_entry = "TCTAGTAGATCAAAGGTTAAGAAAGCCGAAGCCT"
measured_number = 0.721

[[record]]
sequence_entry = "TCATATAGGTAATACAGGCGAAAGTCGGCATCTA"
measured_number = 0.171

[[record]]
sequence_entry = "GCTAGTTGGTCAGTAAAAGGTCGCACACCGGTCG"
measured_number = 1.8

[[record]]
sequence_entry = "TCTCGGAGGACACGAAAGGTCATAGCTCGACATC"
measured_number = 5.34


Sourced from the supplement of paper PMC6555819
